Parameter pIC50: see the listing below.
species on record: Homo sapiens; assay: Inhibition of the production of Interleukin-1-beta from human peripheral blood monocytes stimulated with lipopolysaccharide (LPS); assay type: functional
The read-out pIC50 is expressed as -log10 of concentration in moles per litre.

COc1cc(OC)c(C(=O)/C=C/c2ccc(C(=O)Nc3cccnc3)cc2)c(OC)c1
6.10
O=C(/C=C/c1ccccc1)c1ccccc1OCc1ccccc1
5.65

Next item in the queue.
Q. Any idea what pIC50 was measured for O=C(/C=C/c1ccccc1)c1ccccc1Br ?
A. 5.78

---

Measured pIC50, listed per entry.
species on record: Homo sapiens; assay: Inhibition of the production of Interleukin-1-beta from human peripheral blood monocytes stimulated with lipopolysaccharide (LPS); assay type: functional
Scale: negative log10 of molar concentration, which is what pIC50 denotes.

Would you please look over these solved cases?
CCOc1ccccc1C(=O)/C=C/c1ccccc1
6.22
COc1cccc(/C=C/C(=O)c2ccccc2)c1OC
5.70
COc1cc(OC)c(C(=O)/C=C/c2ccc(C(=O)O)cc2)c(OC)c1
5.21
COc1cc(OC)c(C(=O)/C=C/c2ccc(C(N)=O)cc2)c(OC)c1
5.75
Cc1cc(C)c(C(=O)/C=C/c2ccccc2)c(C)c1
5.19

Q. Give the measured pIC50 of CCOc1ccccc1C(=O)/C=C/c1ccncc1 .
A. 5.78

Q. Subsequent entry: COc1ccccc1C(=O)/C=C/c1ccccc1
A. 5.65

Q. // query: COc1cc(OC)c(C(=O)/C=C/c2ccccn2)c(OC)c1
A. 6.22

Q. Follow-up item: COc1cc(OC)c(C(=O)/C=C/c2cccc(C(=O)Nc3nccs3)c2)c(OC)c1
A. 6.30

Q. What do you have for COc1cc(OC)c(C(=O)/C=C/c2cccc(C(=O)Nc3ccccc3)c2)c(OC)c1 ?
A. 6.24

Q. // query: CC(=O)Nc1ccccc1C(=O)/C=C/c1ccccc1
A. 5.76

Q. Could you do the same for COc1cc(OC)c(C(=O)/C=C/c2cccnc2)c(OC)c1 , please?
A. 5.88

Q. Lookup COc1cc(OC)c(C(=O)/C=C/c2cnccn2)c(OC)c1
A. 6.16

Q. Now consider COc1cc(OC)c(C(=O)/C=C/c2ccc(C(=O)Nc3ccccc3)cc2)c(OC)c1 and answer again.
A. 6.10

Q. Query O=C(/C=C/c1ccccc1)c1c2ccccc2cc2ccccc12 next
A. 5.85

Q. Cool, now COc1cc(OC)c(C(O)/C=C/c2ccccc2)c(OC)c1 (configuration not stated)
A. 5.27

Q. Now the compound O=C(/C=C/c1ccccc1)c1ccc(O)cc1 [4'-HYDROXYCHALCONE]
A. 5.21

Q. Same again, this time with COc1ccc(C(=O)/C=C/c2ccccc2)c(OC)c1OC
A. 5.77

Q. What about COc1cccc(C(=O)/C=C/c2ccccc2)c1OC ?
A. 5.78

Q. Also O=C(/C=C/c1ccccc1)c1ccccc1NS(=O)(=O)C(F)(F)F ?
A. 5.23

Q. Same question, COc1cccc(/C=C/C(=O)c2c(OC)cc(OC)cc2OC)c1 this time
A. 5.74

Q. // query: COc1cc(OC)c(C(=O)/C=C/c2ccc(C(=O)Nc3nccs3)cc2)c(OC)c1
A. 6.45

Q. Try this compound next: COc1cc(OC)c(C(=O)/C=C/c2cccc(C(=O)O)c2)c(OC)c1
A. 5.17

Q. Also, COc1ccc(/C=C/C(=O)c2ccccc2)cc1OC please.
A. 5.63

---

organism: Homo sapiens; experiment: Inhibition of the production of Interleukin-1-beta from human peripheral blood monocytes stimulated with lipopolysaccharide (LPS); type: functional
ENDPOINT: IC50 (nM)
Give the number; nM is assumed, so skip it.

# count of solved cases: 3
O=C(/C=C/c1ccccc1)c1ccccc1C(F)(F)F
748
COc1cccc(OC)c1C(=O)/C=C/c1ccccc1
1150
COc1cc(OC)c(C(=O)/C=C/c2ccc(C(=O)N(C)C)cc2)c(OC)c1
2800

Q. Return reported IC50; argument: COc1cc(OC)c(C(=O)/C=C/c2c(F)cccc2F)c(OC)c1
A. 1290

Q. Repeat with O=C(/C=C/c1ccccc1)c1ccccn1
A. 6200

Q. Query COc1cc(OC)c(C(=O)/C=C/c2ccc(C(=O)N(C)c3nccs3)cc2)c(OC)c1 next
A. 1010

Q. Please do the same for O=C(/C=C/c1ccccc1)c1ccccc1O [2'-HYDROXYCHALCONE] as well.
A. 4300

---

Here, each record is paired with measured log10 IC50 data.
species on record: Homo sapiens; experiment: Inhibition of the production of Interleukin-1-beta from human peripheral blood monocytes stimulated with lipopolysaccharide (LPS); assay type: functional
Lab note - IC50 converted to log10 from values in nM.

Here's what some known entries look like.
COC(=O)c1cccc(/C=C/C(=O)c2c(OC)cc(OC)cc2OC)c1
3.22
COc1cc(OC)c(C(=O)/C(C)=C/c2ccccc2)c(OC)c1
3.71
CN(C)C(=O)c1ccccc1C(=O)/C=C/c1ccccc1
3.74
COC(=O)c1ccc(/C=C/C(=O)c2c(OC)cc(OC)cc2OC)cc1
3.29
COC(=O)c1ccccc1C(=O)/C=C/c1ccccc1
3.29
O=C(/C=C/c1ccccc1)c1cccs1
3.76

Q. Quick one: log10 IC50 of COc1cc(OC)c(C(=O)/C=C/c2ccncc2)c(OC)c1 ?
A. 2.77

Q. And then COc1cc(OC)c(C(=O)/C=C/c2cccc(C(=O)Nc3cccnc3)c2)c(OC)c1 , what is it?
A. 3.21

Q. Cool, now CN(C)c1ccccc1C(=O)/C=C/c1ccccc1
A. 3.25

Q. Same lookup for O=C(/C=C/c1ccccc1)c1ccccc1[N+](=O)[O-] , please.
A. 3.18

Q. Item: COC(=O)c1ccccc1C(=O)/C=C/c1ccc(C(=O)Nc2nccs2)cc1
A. 3.31

Q. Can you check COc1cc(C(=O)/C=C/c2ccccc2)cc(OC)c1OC next?
A. 3.26

Q. Try this compound next: O=C(/C=C/c1ccccc1)c1ccccc1 [CHALCONE]
A. 3.80

Q. Let us now turn to COc1cc(OC)c(C(=O)/C=C/c2nccn2C)c(OC)c1
A. 3.58

Q. Then COc1cc(OC)c(C(=O)/C=C/c2ccnc3ccccc23)c(OC)c1 ?
A. 2.49

Q. Request: O=C(/C=C/c1ccccc1)c1c(Cl)cccc1Cl
A. 3.03
